Cited source for all entries: ChEMBL document CHEMBL1201862

List of GI50 values.
System: NCI/ADR-RES
assay.info: NCI tumour cell line growth inhibition, 48 h
The source made the active and inactive calls. No stated cut-off is given here; in the data, active = GI50 up to about 1.1 µM and inactive = higher.

molecule	GI50
COc1ccc(-c2nc(N)n(C)c2SSc2c(-c3ccc(OC)cc3)nc(N)n2C)cc1	14.2 µM (inactive)
O=C(c1no[n+]([O-])c1C(=O)c1csc2ccccc12)c1csc2ccccc12	15.6 µM (inactive)
CC(=O)c1c(SCCN2CCOCC2)n(-c2ccccc2)c(=S)n(-c2ccccc2)c1=O	> 57 µM (inactive)
CCOC(=O)NC(Nc1ccc(OC(F)(F)F)cc1)(C(F)(F)F)C(F)(F)F	> 100 µM (inactive)
c1nc(OCC2CCCCC2)c2nc[nH]c2n1	61.4 µM (inactive)
Cc1[nH]n(-c2ccc(S(=O)(=O)O)cc2)c(=O)c1/N=N/c1ccccc1	> 100 µM (inactive)
Cc1cc(C)n(C(=O)CSc2nc3ccc(I)cc3c(=O)n2Cc2ccccc2)n1	36.6 µM (inactive)
Cc1ccc2c(c1)CC1(Cc3cccc(C)c3C1=O)C2=O (stereo unspecified)	> 100 µM (inactive)
C/C(=C/CNc1ncnc2c1ncn2CCC#N)CO	> 100 µM (inactive)
CC1CN=C(Nc2ccc(F)cc2F)S1 (stereo unspecified)	> 100 µM (inactive)
CC(=O)N1C(C(=O)NNc2ccccc2)CSC1c1ccccc1 (stereo unspecified)	> 100 µM (inactive)

* * *

System: MOLT-4
assay.info: NCI tumour cell line growth inhibition, 48 h
The source made the active and inactive calls. Cut-off read from the data, not from the text of the source: active = GI50 up to about 1.1 µM and inactive = higher.

compound	GI50
Nc1ccc2nc3ccc(=O)cc-3n(-c3ccccc3)c2c1	> 100 µM (inactive)
COC(=O)c1ccccc1CC1Cc2ccc3c(c2C1)CCC3 (stereo unspecified)	21.6 µM (inactive)
COC(=O)/C=C\C(C#N)(C#N)/N=C/c1ccc(C)s1	0.955 µM (active)
C=C(C)[C@H]1CC[C@@]2(C)C(C1)[C@H](C)CC[C@@H]2O (stereo partly specified)	88.3 µM (inactive)
c1ccc(C2=NN3CN(N2)c2ccccc2OCCCOc2ccccc23)cc1	63.8 µM (inactive)
CC(C)CCS(=O)(=O)OCCCCOS(=O)(=O)CCC(C)C	> 100 µM (inactive)
COc1cc(/C=C2/C(=O)N/C(=N\C(C)=O)N2C)ccc1OC(C)=O	> 100 µM (inactive)
O=C(c1ccccc1)C1CCCCN1C(=O)c1ccccc1 (stereo unspecified)	> 100 µM (inactive)
c1nc(OCC2CCCCC2)c2nc[nH]c2n1	31.6 µM (inactive)
S=C(Nc1ccc(/N=N/c2ccccc2)cc1)SCc1ccccc1	12.1 µM (inactive)
CCOc1ccccc1/N=N/c1c(-c2ccccc2)nn(C(=O)CC(=O)Nc2cccc(C)c2)c1-c1ccccc1	> 100 µM (inactive)

* * *

System: NCI/ADR-RES
assay.info: NCI tumour cell line growth inhibition, 48 h
The source made the active and inactive calls. Rule as the data show it: active = GI50 up to about 1.1 µM and inactive = higher.
List of GI50 values.

compound	GI50
Cc1sc(C)c2c1C(=O)CC2N (stereo unspecified)	50.4 µM (inactive)
Cc1ccc(S[C@@H](C)[C@@](O)(C(N)=O)c2ccccc2)cc1	19.9 µM (inactive)
C=CCOc1ccc(C2(c3ccc(OCC=C)cc3)C(=O)Nc3ccccc32)cc1	> 10 µM (inactive)
CC(C)=CCC[C@@H](C)C1=CC(=O)C(C)=C(O)C1=O [ISOPEREZONE]	3.19 µM (inactive)
CC(=O)N(C(C)=O)n1c(Cc2ccc(Cl)cc2)n[nH]c1=O	> 100 µM (inactive)
Cc1c(Cl)cccc1NC(=O)CC1Sc2ccccc2NC1=O (stereo unspecified)	17 µM (inactive)
O=C(O)c1ccc(C(O)(c2ccccc2)c2ccccc2)cc1	> 100 µM (inactive)
[O-]c1c[n+](CCCC[n+]2cc([O-])on2)no1	> 100 µM (inactive)
CN(C)c1nc2oc(-c3ccccc3)c(-c3ccccc3)c2c2nncn12	> 100 µM (inactive)
Oc1ccc(-c2nc3ccccc3s2)cc1	31.8 µM (inactive)
O=C(O)c1ccc(OCc2nc3cc(C(F)(F)F)ccc3nc2-c2ccccc2)cc1	44.6 µM (inactive)
